Sourced from ChEMBL document CHEMBL1201862

System: MDA-MB-435
protocol_text: NCI tumour cell line growth inhibition, 48 h
Active and inactive are the calls of the source. Cut-off read from the data, not from the text of the source: active = GI50 up to about 1.1 µM and inactive = higher.
# GI50 annotations
parameter_measured: GI50

>>> endpoint_value("CCOC(=O)C(NC(=O)c1ccccc1)(N1CCN(c2cc3c(cc2F)c(=O)c(C(=O)O)cn3C2CC2)CC1)C(F)(F)F (stereo not drawn)")
"21.1 µM (inactive)"
>>> endpoint_value("CCOC(=O)CC[C@H](NC(=O)c1ccc(CNc2nc3cc(C(F)(F)F)ccc3nc2C(=O)OCC)cc1)C(=O)OCC")
"> 73.6 µM (inactive)"
>>> endpoint_value("CC(C)C(OC(=O)c1ccc(NCC2=CC(=O)C=CC2=O)cc1)C(C)C")
"4.75 µM (inactive)"
>>> endpoint_value("COC(=O)[C@@H]1C=C[C@H](OC2OC(COC(C)=O)C(OC(C)=O)C(OC(C)=O)C2OC(C)=O)n2c(=O)n(-c3ccccc3)c(=O)n21 (stereo partly drawn)")
"5.14 µM (inactive)"
>>> endpoint_value("O=[N+]([O-])c1ccc(CSCc2ccc(Cl)cc2)cc1")
"> 100 µM (inactive)"
>>> endpoint_value("O=C=NCCCCCCN1C(=O)N2C(c3ccccc3)N(CCCCCCN=C=O)C(=O)N2C1c1ccccc1 (stereo not drawn)")
"> 100 µM (inactive)"
>>> endpoint_value("c1ccc2c(c1)Nc1c3ccccc3nc3cccc-2c13")
"1.61 µM (inactive)"
>>> endpoint_value("O=C(CCCCCCCCC(=O)NN1C(=O)/C(=C\\c2ccc(O)c(O)c2)SC1c1ccc(Cl)cc1)NN1C(=O)/C(=C\\c2ccc(O)c(O)c2)SC1c1ccc(Cl)cc1 (stereo not drawn)")
"66.8 µM (inactive)"
